ASSAYED TARGET: rat TRPV1 (Rattus norvegicus, UniProt O35433)
Construct: expressed in transfected cells; host or cells: HEK293
Sequence (O35433 whole entry): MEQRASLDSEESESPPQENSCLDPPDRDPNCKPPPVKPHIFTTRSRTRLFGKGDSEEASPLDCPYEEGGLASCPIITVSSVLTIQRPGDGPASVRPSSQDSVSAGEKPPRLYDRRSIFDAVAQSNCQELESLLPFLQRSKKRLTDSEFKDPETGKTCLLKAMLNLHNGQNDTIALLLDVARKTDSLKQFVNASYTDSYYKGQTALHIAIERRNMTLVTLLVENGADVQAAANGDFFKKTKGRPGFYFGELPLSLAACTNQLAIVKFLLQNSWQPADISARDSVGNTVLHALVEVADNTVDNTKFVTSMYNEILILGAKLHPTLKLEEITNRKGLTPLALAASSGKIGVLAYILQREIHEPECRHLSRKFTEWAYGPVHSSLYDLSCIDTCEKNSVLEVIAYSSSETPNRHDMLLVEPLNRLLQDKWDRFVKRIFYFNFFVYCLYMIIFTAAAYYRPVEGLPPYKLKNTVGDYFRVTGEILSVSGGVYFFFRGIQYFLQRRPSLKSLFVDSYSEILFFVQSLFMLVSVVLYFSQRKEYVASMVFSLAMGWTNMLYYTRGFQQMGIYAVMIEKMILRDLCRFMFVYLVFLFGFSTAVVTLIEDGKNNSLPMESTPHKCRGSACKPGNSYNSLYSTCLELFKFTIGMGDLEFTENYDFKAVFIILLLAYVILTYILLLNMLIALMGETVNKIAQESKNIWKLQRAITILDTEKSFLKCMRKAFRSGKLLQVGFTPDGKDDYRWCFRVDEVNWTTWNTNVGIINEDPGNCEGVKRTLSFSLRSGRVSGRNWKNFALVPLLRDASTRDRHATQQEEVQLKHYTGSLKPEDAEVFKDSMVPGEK
ASSAY REMARKS: Block of capsaicin-induced Ca2+ influx, rat assay (rTRPV1/HEK293, FLIPR)
Type: cell-based
CONDITIONS: HEK293 cells transfected with rat TRPV1; capsaicin challenge; mean; > value = solubility limit in assay medium; read-out: Rat IC50
Counter-ions that a name gives are not always drawn.
REPORTED ENDPOINT: IC50 (nM)

Examples with answers:
MOLECULE: FC(F)(F)c1ccc(Nc2nc(NCC3CCNCC3)nc3sc(Cc4c(Cl)cccc4Cl)nc23)cc1 [Example 92, hydrochloride salt]
ASSAYED TARGET: rat TRPV1 (Rattus norvegicus, UniProt O35433)
SCALE UNIT: nM
OBS VALUE: 4340
//
MOLECULE: CN1CCN(S(=O)(=O)c2ccc(Nc3ncnc4sc(Cc5c(Cl)cccc5Cl)nc34)cc2)CC1
ASSAYED TARGET: rat TRPV1 (Rattus norvegicus, UniProt O35433)
SCALE UNIT: nM
OBS VALUE: 1090
//
MOLECULE: Cc1cccc(C)c1Cc1nc2c(Nc3ccc(S(=O)(=O)N4CCOCC4)cc3)ncnc2s1
ASSAYED TARGET: rat TRPV1 (Rattus norvegicus, UniProt O35433)
SCALE UNIT: nM
OBS VALUE: 204

I. CC(C)Nc1nc(Nc2ccc(C(F)(F)F)cc2)c2nc(Cc3c(Cl)cccc3Cl)sc2n1
II. Cc1nc(Nc2ccc(C(F)(F)F)cn2)c2nc(Cc3c(Cl)cccc3Cl)sc2n1
III. FC(F)(F)c1ccc(Nc2ncnc3sc(Cc4ccccc4I)nc23)cc1
Query: Endpoint returns the given molecules ordered by ascending IC50. Returns: the labels arranged in the requested order.
Result: III, I, II
(III: 8 nM, I: 72 nM, II: 158 nM)

###

ASSAYED TARGET: UniProtKB Q8NER1
Sequence (Q8NER1 whole entry): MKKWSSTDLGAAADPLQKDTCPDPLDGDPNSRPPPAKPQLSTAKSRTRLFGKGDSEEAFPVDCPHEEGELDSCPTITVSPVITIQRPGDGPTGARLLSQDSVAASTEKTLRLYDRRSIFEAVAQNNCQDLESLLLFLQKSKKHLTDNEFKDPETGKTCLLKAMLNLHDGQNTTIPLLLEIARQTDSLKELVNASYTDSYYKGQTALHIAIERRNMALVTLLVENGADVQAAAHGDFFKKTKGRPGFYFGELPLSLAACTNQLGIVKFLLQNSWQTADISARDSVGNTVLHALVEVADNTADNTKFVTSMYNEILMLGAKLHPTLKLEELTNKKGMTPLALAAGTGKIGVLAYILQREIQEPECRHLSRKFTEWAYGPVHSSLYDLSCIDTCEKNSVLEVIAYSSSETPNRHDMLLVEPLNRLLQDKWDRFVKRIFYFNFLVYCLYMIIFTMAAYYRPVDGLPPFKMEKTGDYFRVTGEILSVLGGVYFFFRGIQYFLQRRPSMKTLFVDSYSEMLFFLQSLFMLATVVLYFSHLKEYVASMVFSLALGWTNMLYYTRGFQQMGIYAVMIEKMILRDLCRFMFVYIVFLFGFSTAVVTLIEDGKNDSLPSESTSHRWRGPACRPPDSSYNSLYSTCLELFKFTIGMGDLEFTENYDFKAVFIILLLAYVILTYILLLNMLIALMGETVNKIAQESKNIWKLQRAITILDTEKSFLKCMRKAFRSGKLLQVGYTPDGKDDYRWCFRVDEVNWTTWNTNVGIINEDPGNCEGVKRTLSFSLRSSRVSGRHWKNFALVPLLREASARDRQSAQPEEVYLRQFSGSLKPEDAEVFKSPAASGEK
ASSAY REMARKS: Block of capsaicin-induced Ca2+ influx, human assay (hTRPV1/HEK293, FLIPR)
CONDITIONS: HEK293 cells transfected with human TRPV1; 150 nM capsaicin challenge; mean; > value = solubility limit in assay medium
Counter-ions that a name gives are not always drawn.
REPORTED ENDPOINT: IC50 (nM)

I. CCN1CCCC1CNc1nc(Nc2ccc(C(F)(F)F)cc2)c2nc(Cc3c(Cl)cccc3Cl)sc2n1 (stereo not drawn)
II. CC(C)C1CCCN1c1nc(Nc2ccc(C(F)(F)F)cc2)c2nc(Cc3c(Cl)cccc3Cl)sc2n1 (stereo not drawn)
Query: Two entries are listed, I and II . Which one carries the higher IC50? Mark your selection by writing its label.
Result: II

1. Oc1ccccc1-c1ccccc1Cc1nc2c(Nc3ccc(C(F)(F)F)cc3)ncnc2s1
2. Cc1cccc(C)c1Cc1nc2c(Nc3ccc(C(F)(F)F)nc3)ncnc2s1
3. Cc1ccccc1Cc1nc2c(Nc3ccc(S(C)(=O)=O)cc3)ncnc2s1
Query: Hey, quick one: sort these by IC50, low to high? Show the ranking through the labels, in the order asked for.
Result: 2, 3, 1
(2: 139 nM, 3: 471 nM, 1: 1010 nM)

I. FC(F)(F)c1ccc(Nc2ncnc3sc(Cc4ccccc4I)nc23)cc1
II. FC(F)(F)c1ccc(Nc2ncnc3sc(Cc4ccc(Cl)cc4)nc23)cn1
Query: // max by IC50 over [ I , II ] Output the label that corresponds to your choice.
Result: II

a. Cc1cccc(C)c1Cc1nc2c(Nc3ccccc3)ncnc2s1
b. FC(F)(F)c1ccc(Nc2ncnc3sc(Cc4cccc(Cl)c4)nc23)cc1
c. Cc1cccc(C)c1Cc1nc2c(Nc3ccc(S(C)(=O)=O)cc3)ncnc2s1
d. CC(C)(C(N)=O)c1ccc(Nc2ncnc3sc(Cc4c(Cl)cccc4Cl)nc23)cc1
Query: Rank entries according to their IC50, from the largest number down. Would you mind listing the labels in the order asked for?
Result: d, a, c, b
(d: 8900 nM, a: 3440 nM, c: 496 nM, b: 252 nM)

1. CC(C)Oc1nc(Nc2ccc(C(F)(F)F)cc2)c2nc(Cc3c(Cl)cccc3Cl)sc2n1
2. FC(F)(F)c1ccc(Nc2ncnc3sc(Cc4c(Cl)cccc4Cl)nc23)cc1
Query: So which one has the bigger IC50 here, 1 or 2 ? Please identify the chosen entry by its label.
Result: 1

A. Cc1ccccc1Cc1nc2c(Nc3ccc(C(F)(F)F)cc3)ncnc2s1
B. FC(F)(F)c1ccc(Nc2nc(NCCN3CCOCC3)nc3sc(Cc4c(Cl)cccc4Cl)nc23)cc1 [Example 65, trifluoroacetic acid salt]
Query: Look at A and B . Which one has the lower recorded IC50 number? Mark your selection by writing its label.
Result: A
(A: 147 nM, B: 461 nM)

A. COc1nc(Nc2ccc(C(F)(F)F)cc2)c2nc(Cc3c(Cl)cccc3Cl)sc2n1
B. CC(Nc1nc(Nc2ccc(C(F)(F)F)cc2)c2nc(Cc3c(Cl)cccc3Cl)sc2n1)c1ccccn1 (stereo not drawn)
Query: Parameter metric = IC50. Return the lower-valued option from A and B . Please indicate the selected item by its label.
Result: B

I. FC(F)(F)c1ccc(Nc2ncnc3[nH]c(Cc4c(Cl)cccc4Cl)nc23)cc1 [Example 109, trifluoroacetic acid salt]
II. FC(F)(F)c1ccc(Nc2ncnc3sc(Cc4ccccc4Cl)nc23)cn1
Query: Looking only at measured IC50, which entry is lower, I or II ? Field: selected label. Fill in the label of the entry you choose.
Result: II
(II: 79 nM, I: 716 nM)
